test system: OVCAR-4 ovarian; assay: NCI tumour cell line growth inhibition, 48 h
Measurement name: TGI (µM)

- Molecule: "COC1=CC(=O)C2=C(C1=O)[C@H]1CC[C@]3(C)[C@@H](OC(C)=O)CC[C@H]3[C@@H]1CC2"
  Target under test: "OVCAR-4 ovarian"
  Measurement name: "TGI"
  Result operator: "="
  Readout number: 30.6
- Molecule: "C/C(=N/O)c1ccc2c(c1)C(=NO)c1cc(/C(C)=N/O)ccc1-2"
  Target under test: "OVCAR-4 ovarian"
  Measurement name: "TGI"
  Result operator: "="
  Readout number: 30.5
- Molecule: "COC(=O)[C@H](Cc1ccccc1)NC(=O)c1csc([C@@H](C[C@H](C(C)C)N(C)C(=O)[C@@H](NC(=O)[C@H]2CCCN2C)C2CC2)OC(C)=O)n1"
  Target under test: "OVCAR-4 ovarian"
  Measurement name: "TGI"
  Result operator: ">"
  Readout number: 33.3
- Molecule: "Cc1c(C(=O)OCc2ccccc2)[n+](=O)c2cc(F)c(F)cc2n1[O-]"
  Target under test: "OVCAR-4 ovarian"
  Measurement name: "TGI"
  Result operator: "="
  Readout number: 3.53
- Molecule: "O=S1(=O)CCN(c2ccccc2CC(c2c[nH]c3ccccc23)c2c[nH]c3ccccc23)CC1"
  Target under test: "OVCAR-4 ovarian"
  Measurement name: "TGI"
  Result operator: ">"
  Readout number: 63.7
- Molecule: "CC12CC(c3ccccc3O1)C(C(=O)Nc1cccc(F)c1)C(=O)N2 (centres undefined)"
  Target under test: "OVCAR-4 ovarian"
  Measurement name: "TGI"
  Result operator: ">"
  Readout number: 100
- Molecule: "COC(=O)c1ccc(/C=C2\\CCc3ccccc3C2=O)cc1"
  Target under test: "OVCAR-4 ovarian"
  Measurement name: "TGI"
  Result operator: ">"
  Readout number: 100
- Molecule: "C/C(=N\\Nc1ccccc1)C(CN(C)C)C(c1ccccc1)c1c(O)c2ccccc2oc1=O (centres undefined)"
  Target under test: "OVCAR-4 ovarian"
  Measurement name: "TGI"
  Result operator: ">"
  Readout number: 100
- Molecule: "O=C(Nc1ccc(Cl)cc1)Nc1ccccc1CNc1nc(Nc2ccc(OCCN3CCCC3)cc2)ncc1Cl"
  Target under test: "OVCAR-4 ovarian"
  Measurement name: "TGI"
  Result operator: "="
  Readout number: 1.66

====

test system: MOLT-4 leukemia; assay: NCI tumour cell line growth inhibition, 48 h
Recorded measurements of TGI, one per entry

- Compound structure: "CNc1ccc(Cl)cc1S(=O)(=O)c1ccccc1[N+](=O)[O-]"
  TGI: "> 100 µM"
- Compound structure: "COc1cc(-n2cc(-c3cc(O)c(C/C=C(\\C)CCC=C(C)C)c(O)c3)nn2)cc2c1O[C@]1(C)CC[C@@H](O)C(C)(C)[C@H]1C2"
  TGI: "1.36 µM"
- Compound structure: "CCCCCCCCCCCCCCCCS(=O)(=O)c1ccc(NN)cc1"
  TGI: "> 10 µM"
- Compound structure: "NS(=O)(=O)c1ccc(NC(=O)c2cccn3c(=O)c4ccccc4nc23)cc1"
  TGI: "> 100 µM"
- Compound structure: "COc1cc2cc(Oc3ccc(NC(=O)c4cccc5c4OCCO5)cc3)c(C)nc2cc1OC"
  TGI: "> 100 µM"

====

Recorded measurements of TGI, one per entry
test system: SF-295 CNS; assay: NCI tumour cell line growth inhibition, 48 h

- Compound: "COc1cc2cccc(N=Cc3c(Br)ccc(OC)c3OC(C)C)c2cc1OC"
  TGI: "> 100 µM"
- Compound: "CCN(CC)CCCCC1CCN(CC(=O)N2c3ccccc3NC(=O)CC2C)CC1 (stereo unspecified)"
  TGI: "> 100 µM"
- Compound: "CC1(C)CC(=O)c2c(oc3cc(O)c(O)cc23)C1"
  TGI: "> 100 µM"
- Compound: "Cc1ccc(/C=C2\\CN(C)CC3C2=NC(=S)NC3c2ccc(C)cc2)cc1 (stereo unspecified)"
  TGI: "> 100 µM"
- Compound: "COc1ccc2[nH]c(-c3ccccc3)cc2c1"
  TGI: "> 100 µM"
- Compound: "COC1=CC(=O)C2=C(C1=O)[C@H]1CC[C@]3(C)[C@@H](OC(C)=O)CC[C@H]3[C@@H]1CC2"
  TGI: "> 100 µM"
- Compound: "CCOC(=O)C[C@@]12CCCNC1(C)CCc1ccccc12 (stereo partly specified)"
  TGI: "> 100 µM"
- Compound: "CC1=C2C(=O)c3ccccc3C(=O)[C@H]2C[C@@H](N2CCCCCC2=O)O1"
  TGI: "35.6 µM"
- Compound: "CN(C)C(=O)SC1=C(c2c(Cl)cccc2Cl)C(=O)c2ccccc21"
  TGI: "33.7 µM"
- Compound: "O=c1c2c(nc3n1CCC3)sc1c(O)c(Br)ccc12"
  TGI: "35 µM"
- Compound: "Cc1cc(=O)oc2cc(OCCn3c(C)nn(-c4ccc(Cl)cc4)c3=O)ccc12"
  TGI: "> 100 µM"

====

tested on: MDA-MB-231 breast; test: NCI tumour cell line growth inhibition, 48 h
Measurement name: TGI

- Molecule: "CC1(C)CCC2(C(=O)OC3OC(CO)C(O)C(O)C3O)CCC3(CO)C(=CCC4C5(C)CC(O)C(O)C(C)(C(=O)OC6OC(CO)C(O)C(O)C6O)C5CCC43C)C2C1 (stereo not given)"
  Result: "> 100 µM"
- Molecule: "Nc1ccn([C@@H]2C(F)=C(CO)[C@@H](O)[C@H]2O)c(=O)n1"
  Result: "> 100 µM"
- Molecule: "O=C(/C=C/c1ccco1)c1cccc(C(=O)/C=C/c2ccco2)n1"
  Result: "> 100 µM"
- Molecule: "O=C(CCN1CCCC1)Nc1ccc2c(Nc3ccccc3)c3ccccc3nc2c1"
  Result: "3.45 µM"
- Molecule: "CC(C)(C)CC(C)(C)c1ccc(OCCOCC[N+](C)(C)Cc2ccccc2)cc1"
  Result: "2.82 µM"
- Molecule: "O=C1CSc2nnc(CCCCCCCCc3nnc4n3NC(=O)CS4)n2N1"
  Result: "> 100 µM"
- Molecule: "O=C1CSC2(CC(/C=C/c3ccccc3Br)=NN2c2cccc(S(=O)(=O)O)c2)N1c1nc2ccccc2s1 (stereo not given)"
  Result: "> 100 µM"
- Molecule: "C=C1CC(Cn2cc(Br)c(=O)[nH]c2=O)(c2ccc(-c3ccccc3)cc2)OC1=O (stereo not given)"
  Result: "9 µM"
- Molecule: "Cn1cnc([N+](=O)[O-])c1Sc1nc(N)nc2nc[nH]c12"
  Result: "> 100 µM"
- Molecule: "Cc1ccc2c(c1)CC1(C2=O)[C@H](c2ccccc2)C2C(=O)c3ccc(C)cc3C2[C@H]1c1ccccc1 (stereo not given in full)"
  Result: "> 100 µM"

====

tested on: CCRF-CEM leukemia; test: NCI tumour cell line growth inhibition, 48 h
Recorded measurements of TGI, one per entry
Measurement name: TGI

- Compound: "CC1=C2C(=O)c3ccccc3C(=O)[C@H]2C[C@@H](N2CCCCCC2=O)O1"
  Target under test: "CCRF-CEM leukemia"
  Measurement name: "TGI"
  Result: "20.3 µM"
- Compound: "O=C(O)[C@@H]1CCCC[C@@H]1C(=O)N(C1CCCCC1)C1CCCCC1"
  Target under test: "CCRF-CEM leukemia"
  Measurement name: "TGI"
  Result: "> 100 µM"
- Compound: "C/C(=N\\Nc1ccccc1)C(CN(C)C)C(c1ccccc1)c1c(O)c2ccccc2oc1=O (stereo unspecified)"
  Target under test: "CCRF-CEM leukemia"
  Measurement name: "TGI"
  Result: "> 100 µM"
- Compound: "CC(=O)OCCC(O[Si](c1ccccc1)(c1ccccc1)C(C)(C)C)C(C)(C)O (stereo unspecified)"
  Target under test: "CCRF-CEM leukemia"
  Measurement name: "TGI"
  Result: "67.6 µM"
- Compound: "COc1cc2cccc(N=Cc3c(Br)ccc(OC)c3OC(C)C)c2cc1OC"
  Target under test: "CCRF-CEM leukemia"
  Measurement name: "TGI"
  Result: "90.4 µM"
- Compound: "CC(C)(C)c1ccc(-c2nnc(-c3cc(C#N)cc(-c4nnc(-c5ccc(C(C)(C)C)cc5)o4)c3)o2)cc1"
  Target under test: "CCRF-CEM leukemia"
  Measurement name: "TGI"
  Result: "> 100 µM"
- Compound: "CCOC(=O)C[C@@]12CCCNC1(C)CCc1ccccc12 (stereo partly specified)"
  Target under test: "CCRF-CEM leukemia"
  Measurement name: "TGI"
  Result: "> 100 µM"
- Compound: "Cn1c(=O)sc2cc(C(=S)N3CCOCC3)ccc21"
  Target under test: "CCRF-CEM leukemia"
  Measurement name: "TGI"
  Result: "> 100 µM"
- Compound: "O=c1oc2ccc(Cl)cc2cc1-c1cn2ccsc2n1"
  Target under test: "CCRF-CEM leukemia"
  Measurement name: "TGI"
  Result: "78.3 µM"
- Compound: "CCCCCCCCCCCCCCCCS(=O)(=O)c1ccc(NN)cc1"
  Target under test: "CCRF-CEM leukemia"
  Measurement name: "TGI"
  Result: "4.34 µM"
- Compound: "CCc1cccc(CC)c1/C=C/c1cncc(C(=O)NC)c1"
  Target under test: "CCRF-CEM leukemia"
  Measurement name: "TGI"
  Result: "> 25 µM"
- Compound: "O=C(Nc1ccccc1O)c1ccc(CNC(=O)c2ccsc2Nc2ccnc(C(F)(F)F)c2)cc1"
  Target under test: "CCRF-CEM leukemia"
  Measurement name: "TGI"
  Result: "> 100 µM"
- Compound: "C/C(=N/NC(=O)CC(=O)N(C(=O)c1ccccc1Cl)c1ccc(C)cc1)c1cc2ccccc2oc1=O"
  Target under test: "CCRF-CEM leukemia"
  Measurement name: "TGI"
  Result: "> 100 µM"
- Compound: "CCOC1=C2NC(Cc3ccc(F)cc3)=NC2C(=O)c2ccccc21 (stereo unspecified)"
  Target under test: "CCRF-CEM leukemia"
  Measurement name: "TGI"
  Result: "61.8 µM"
- Compound: "O=C1C=C(N2CCN(c3ccccn3)CC2)C(=O)c2c(O)ccc(O)c21"
  Target under test: "CCRF-CEM leukemia"
  Measurement name: "TGI"
  Result: "> 36.8 µM"
- Compound: "Cc1c(C(=O)OCc2ccccc2)[n+](=O)c2cc(F)c(F)cc2n1[O-]"
  Target under test: "CCRF-CEM leukemia"
  Measurement name: "TGI"
  Result: "> 100 µM"
- Compound: "COc1cc2cc(Oc3ccc(NC(=O)c4cccc5c4OCCO5)cc3)c(C)nc2cc1OC"
  Target under test: "CCRF-CEM leukemia"
  Measurement name: "TGI"
  Result: "> 100 µM"
- Compound: "Cc1ccc2c(c1)CC1(C2=O)[C@H](c2ccccc2)C2C(=O)c3ccc(C)cc3C2[C@H]1c1ccccc1 (stereo partly specified)"
  Target under test: "CCRF-CEM leukemia"
  Measurement name: "TGI"
  Result: "> 100 µM"
- Compound: "O=C(CCN1CCCC1)Nc1ccc2c(Nc3ccccc3)c3ccccc3nc2c1"
  Target under test: "CCRF-CEM leukemia"
  Measurement name: "TGI"
  Result: "2.14 µM"
- Compound: "CC(=O)O[C@H]1C(=O)N(c2cc3c4ccccc4ccc3c3ccccc23)[C@@H]1c1ccccc1"
  Target under test: "CCRF-CEM leukemia"
  Measurement name: "TGI"
  Result: "> 100 µM"
- Compound: "C/C(=C\\Cc1cc(O)ccc1O)CCc1c(C)cc(O)c(C=O)c1C"
  Target under test: "CCRF-CEM leukemia"
  Measurement name: "TGI"
  Result: "30.5 µM"
